test system: apyrase; experiment: Screen for apyrase inhibitors (Method 1, in vitro phosphate-release absorbance assay); format: biochemical; conditions: inhibitor conc at 1 mM stock, 1 hr room temperature, absorbance 630 nm; rounded average of two assay results
Decide using % Inhibition of Apyrase: a value greater than or equal to 60% is yes (1), a smaller one is no (0).

Reference set (8 entries):
compound: COc1ccc2c(c1)CCCN2C(=O)c1ccc(S(=O)(=O)Nc2ccccc2C)cc1
system.tested: apyrase
label: no (0)
//
compound: CCOc1ccc(NC(=O)c2ccc(NS(=O)(=O)c3cccc(C(F)(F)F)c3)cc2)cc1
system.tested: apyrase
label: yes (1)
//
compound: O=C(c1cccc(S(=O)(=O)N2CCc3ccccc32)c1)N1CCc2ccccc21
system.tested: apyrase
label: no (0)
//
compound: Cc1ccc(NS(=O)(=O)c2ccc(C(=O)Nc3ccc(Cl)cc3C)cc2)cc1
system.tested: apyrase
label: no (0)
//
compound: COc1ccc([N+](=O)[O-])cc1NS(=O)(=O)c1ccc(C(=O)Nc2ccc(Cl)cc2)cc1
system.tested: apyrase
label: yes (1)
//
compound: O=C(Nc1cccc([N+](=O)[O-])c1)c1ccc(Br)c(S(=O)(=O)Nc2cccc(F)c2)c1
system.tested: apyrase
label: no (0)
//
compound: Cc1ccc(C(=O)Nc2ccccc2S(=O)(=O)Nc2ccccc2)cc1F [I-817]
system.tested: apyrase
label: yes (1)
//
compound: Cn1nc(C(=O)Nc2cccc(S(=O)(=O)Nc3cccc(C(F)(F)F)c3)c2)c2ccccc2c1=O
system.tested: apyrase
label: no (0)

Now consider the entry below.
Task item: Is the recorded value of % Inhibition of Apyrase equal to or greater than 60% for this compound? O=C(c1cccc(S(=O)(=O)Nc2cccc(C(F)(F)F)c2)c1)N1CCCc2ccccc21
Reply: yes (1)

====

System: apyrase
Assay: Screen for apyrase inhibitors (Method 1, in vitro phosphate-release absorbance assay)
Format: biochemical
Settings: inhibitor conc at 1 mM stock, 1 hr room temperature, absorbance 630 nm; rounded average of two assay results
Experimental: Apyrase inhibitors useful as enhancers of pesticidal activity are assessed using an in vitro assay. […]
// no strictly below 60% in % Inhibition of Apyrase; yes otherwise

# example entries with known answers
compound: CC1Cc2ccccc2N1S(=O)(=O)c1cccc(C(=O)Nc2ccc3c(c2)OCO3)c1 (stereo not shown)
label: no

compound: COc1ccccc1N(C)S(=O)(=O)c1ccc(C(=O)N2CCc3ccccc32)cc1
label: no

compound: COc1ccccc1NS(=O)(=O)c1ccc(C(=O)Nc2ccc(F)c([N+](=O)[O-])c2)cc1
label: no

compound: Cc1ccc(NS(=O)(=O)c2ccc(C(=O)Nc3cccc(S(=O)(=O)N4CCCC4)c3)cc2)cc1
label: yes

compound: O=C(Nc1ccc2c(c1)OCCO2)c1cccc(S(=O)(=O)N2CCc3ccccc32)c1
label: no

compound: O=C1CN(S(=O)(=O)c2ccc(Cl)cc2)c2ccccc2N1
label: yes

Task item: Dear colleague, could you confirm whether CN(c1ccccc1)S(=O)(=O)c1cccc(NC(=O)c2cc3cc(F)ccc3[nH]2)c1 has % Inhibition of Apyrase at or above 60%?
Reply: yes

Task item: Form field: % Inhibition of Apyrase at least 60%? Entry: O=C1CSc2ccc(C(=O)Nc3cccc(S(=O)(=O)Nc4ccc(Br)cc4)c3)cc2N1
Reply: yes

====

tested on: apyrase; assay: Screen for apyrase inhibitors (Method 1, in vitro phosphate-release absorbance assay); type: biochemical; conditions: inhibitor conc at 1 mM stock, 1 hr room temperature, absorbance 630 nm; rounded average of two assay results
readout.label: % Inhibition of Apyrase (%)
The response must be a number in % with no trailing unit.

# annotated cases, reported % Inhibition of Apyrase shown
compound: Cc1ccccc1NS(=O)(=O)c1ccc(C(=O)Nc2ccccc2C(=O)NC2CC2)cc1 [I-893]
unit.info: %
experimental.result: 20

compound: CC1Cc2ccccc2N1S(=O)(=O)c1cccc(C(=O)Nc2cccc(Oc3ccccc3)c2)c1 (centres unmarked) [I-487]
unit.info: %
experimental.result: 58

compound: CC(C)c1ccc(NC(=O)c2ccc(S(=O)(=O)N3CCCc4ccccc43)cc2)cc1 [I-864]
unit.info: %
experimental.result: 59

compound: COc1ccc(OC)c(S(=O)(=O)Nc2cccc(C(=O)Nc3cccc(C(F)(F)F)c3)c2)c1 [I-323]
unit.info: %
experimental.result: 42

Task item: Request: % Inhibition of Apyrase, test system apyrase, entry CCOc1ncccc1C(=O)Nc1cccc(S(=O)(=O)N(C)c2ccccc2)c1 [I-711]
Reply: 60

Task item: API: value(readout= % Inhibition of Apyrase, system= apyrase, query= COc1ccc(Cl)cc1NC(=O)c1cccc(S(=O)(=O)N2CCc3ccccc32)c1 [I-548] )
Reply: 53

Task item: Request - read-out % Inhibition of Apyrase | tested on apyrase | compound N#Cc1cccc(NC(=O)c2ccc(NS(=O)(=O)c3ccc(F)cc3)cc2)c1 [I-957]
Reply: 20

Task item: Form entry - test system: apyrase; read-out: % Inhibition of Apyrase; compound: COc1ccc(CC(=O)Nc2cccc(S(=O)(=O)Nc3ccc(Br)cc3)c2)cc1F [I-330]
Reply: 65
